B1: KRT18 (parent)
chain: PQVRDWSHYFKIIEDLRAQIFANT

- Variants of: B1
- Assay Text: protein stability index of a GFP-peptide fusion (GPS, HEK-293T) (PSI 1-6); higher = more stable;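 also: lentivirally expressed fusions sorted by FACS into six bins by GFP to DsRed ratio, PSI derived from sequencing read proportions per bin multiplied by bin number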
- Condition Label: c terminus: a fixed tail appended
Param threshold (2) applies to protein stability index; output Criterion met when value >= threshold, Criterion not met when value < threshold.

Illustrative cases are given below, each with its answer.
R17Y = Criterion not met
I13V = Criterion met
N23M = Criterion met
F10T = Criterion met
H8D = Criterion not met

Can Q2K be said to have protein stability index at or above 2?
Criterion met

Thanks! And A22F ?
Criterion not met

What about I20K ?
Criterion met

Check P1F too.
Criterion not met

// next record I13F
Criterion met

Would you kindly repeat that for H8E ?
Criterion met

Do the same for K11A please
Criterion met
